Biological target: T1, EGFR on cells (human, UniProt P00533)
T1 construct: endogenous receptor on the cell surface; for A549 cells m5 is used; also called on NCI-H441, EBC-1, A431, MKN-45, HepG2 or T47D cells (cell line under assay)
Assay: flow cytometry, HepG2 cells (c-MET+ EGFR+)

| Binder | MFI at 100 nM |
| --- | --- |
| oa 225-L (antibody, V domains shown, one-armed (monovalent) anti-EGFR SEED molecule) VH: EVQLVQSGAEVKKPGASVKVSCKASGFSLTNYGVHWMRQAPGQGLEWIGVIWRGGNTDYNTPFTSRVTITSDKSTSTAYMELSSLRSEDTAVYYCARALTYYDYEFAYWGQGTLVTVSS VL: DIQMTQSPSSLSASVGDRVTITCRASQSIGTNIHWYQQKPGKAPKLLIKYASESISGVPSRFSGSGYGTDFTLTISSLQPEDVATYYCQQNNNWPTTFGQGTKVEIK | 22 |
| oa 425 (antibody, V domains shown, one-armed (monovalent) anti-EGFR SEED molecule) VH: QVQLVQSGAEVKKPGASVKVSCKASGYTFTSHWMHWVRQAPGQGLEWIGEFNPSNGRTNYNEKFKSKATMTVDTSTNTAYMELSSLRSEDTAVYYCASRDYDYDGRYFDYWGQGTLVTVSS VL: DIQMTQSPSSLSASVGDRVTITCSASSSVTYMYWYQQKPGKAPKLLIYDTSNLASGVPSRFSGSGSGTDYTFTISSLQPEDIATYYCQQWSSHIFTFGQGTKVEIKR | 50 |
| oa 225-H (antibody, V domains shown, one-armed (monovalent) anti-EGFR SEED molecule) VH: EVQLVQSGAEVKKPGASVKVSCKASGFSLTNYGVHWMRQAPGQGLEWIGVIWSGGNTDYNTPFTSRVTITSDKSTSTAYMELSSLRSEDTAVYYCARALDYYDYEFAYWGQGTLVTVSS VL: DIQMTQSPSSLSASVGDRVTITCRASQSIGTNIHWYQQKPGKAPKLLIKYASESISGVPSRFSGSGYGTDFTLTISSLQPEDVATYYCQQNNEWPNTFGQGTKVEIK | 53 |
